Target: T1, human OX40 expressed on cells (293T-OX40, Jurkat-OX40) (human, UniProt P43489 29-277)
T1 construct: whole, on cells; the construct transfected into the cells is not described; also called CD134; ACT35
T1 sequence (looked up): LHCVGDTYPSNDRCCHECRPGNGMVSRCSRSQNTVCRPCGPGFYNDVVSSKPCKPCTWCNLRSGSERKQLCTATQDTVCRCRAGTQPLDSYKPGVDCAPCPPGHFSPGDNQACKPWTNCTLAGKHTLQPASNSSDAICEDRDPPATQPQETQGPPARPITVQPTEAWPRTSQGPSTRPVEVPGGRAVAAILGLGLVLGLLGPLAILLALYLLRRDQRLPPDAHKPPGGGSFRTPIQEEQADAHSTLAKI
Assay: FACS on 293T-OX40 cells

| binder | EC50, µg/mL |
| --- | --- |
| murine OX40 hybridoma antibody 119H2 (antibody, V domains shown, Purified murine monoclonal hybridoma antibody) VH: EVKLDATGGGLVQPGRPMKLSCVASGFTFSDYWMNWVRQSPEKGLEWVAQIRNKPYNYETFYSDSVKGRFTISRDDSKSSVYLQMNNLRAEDMGIYYCTGYFDYWGQGTTLTVSS VL: DIVLTQSPASLAVSLGQRATISCRASQSVSTSSYSYMHWYQQKPGQPPKLLIKYASNLESGVPARFSGSGSGTDFTLNIHPVEEEDTATYYCQHSWGIPPTFGGGTKLEIKR | 0.0413 |
| murine OX40 hybridoma antibody 1G2 (antibody, V domains shown, Purified murine monoclonal hybridoma antibody) VH: EVQLQQSGPDLVKPGASVKMSCKASGYRFTSYVMHWVKQRPGQGLEWIGYINPYNDNTRYNEKFKGKATLTSDKSSSTAYMELSSLTSEDSAVYYCAAYYGDYVYLDYWGQGTTLTVSS VL: DIQMTQTTSSLSASLGDRVTISCRASQDINNYLNWYQQKPDGTVKLLIYYTSRLHSGVPSRFSGSGSGTDYSLIISNLEQEDIATYFCQQGNTLPWTFGGGTKLEIKR | 0.0805 |
| murine OX40 hybridoma antibody 177G5 (antibody, V domains shown, Purified murine monoclonal hybridoma antibody) VH: EVQLVESGGGLVKPGGSLKLSCAASGFTFSDFYMYWVRQTPEKRLEWVATISDGGSYTYYPDIVKGRFTISRDNAKNNLNLQMSSLKSDDTAMYYCTTKNGNHIGFAYWGQGTLVTVSA VL: DIQMTQSPASLSVSVGETVTITCRASENIYSNLAWYQQKQGKSPQLLVYAATNLADGVPSRFSGSGSGTQYSLKINSLQSEDFGSYYCQHFWGIPWTFGGGTKLEIKR | 0.0499 |
| murine OX40 hybridoma antibody 3G4 (antibody, V domains shown, Purified murine monoclonal hybridoma antibody) VH: EVQLQQSGPELVKPGTSVKMSCKASGYRFTSYVLHWVRRKPGQGLEWIGYVNPFNDNTRYNEKFKAKATLTSDKSSSTAYMDLVSLTSEDSAVYYCSRGLYDYSYVMDYWGQGTSVTVSS VL: DIQMTQTTSSLSASLGDGVTITCQASQDIRNYLNWYQQKPDGTIKLLIYHTSKLHSGVPSRFSGGGSGTDFSLTISNLDQEDIATYFCQQSQTLPYTFGGGTKLEIKR | 0.0537 |
| murine OX40 hybridoma antibody 118A10 (antibody, V domains shown, Purified murine monoclonal hybridoma antibody) VH: EVKLDETGGGLVQPGRPMKLSCVASGFTFSDYWLNWVRQSPEKGLEWVAQIRNKPYHYETFYSESVKGRFTISRDDSKSSVYLQMNDLRGEDTGIYYCTGYFDYWGQGTTLTVSS VL: DIVLTQSPASLTISLGQRATISCRASQSVSTSTYSYIHWYQQKPGQPPRLLIKYASNLESGVPARFSGSGSGTDFTLNIHPVEEEDTATYYCQHSWGIPPTFGGGTKLEIKR | 0.0735 |
